# EXPERIMENTAL TARGET: UniProt P34972
# Sequence (P34972 whole entry): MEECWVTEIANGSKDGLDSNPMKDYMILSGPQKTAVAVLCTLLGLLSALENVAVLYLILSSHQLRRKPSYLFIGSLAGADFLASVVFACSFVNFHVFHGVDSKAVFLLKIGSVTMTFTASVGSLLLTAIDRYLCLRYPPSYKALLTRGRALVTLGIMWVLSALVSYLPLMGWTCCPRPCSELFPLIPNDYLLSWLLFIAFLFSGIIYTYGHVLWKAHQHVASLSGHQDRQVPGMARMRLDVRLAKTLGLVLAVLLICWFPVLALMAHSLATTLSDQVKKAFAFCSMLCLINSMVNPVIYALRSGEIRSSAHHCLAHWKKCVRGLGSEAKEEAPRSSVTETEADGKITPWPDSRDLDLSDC
# METHOD DESCRIPTION: cAMP assay (LANCE TR-FRET) in CHO-K1 cells expressing hCB2
# MEASUREMENT CONDITIONS: CHO-K1 cells stably expressing hCB2; intracellular cAMP, NKH-477 prestimulated; average of at least three replicates
# Method: The ability of compounds to act as agonists or inverse agonists at human CB2 and CB1 receptors (hCB2, hCB1, respectively) was determined by measuring changes in intracellular cAMP levels. […] Receptor mediated responses were determined by measuring changes in intracellular cAMP using LANCE cAMP detection kit (catalog #AD0264, PerkinElmer, Wellesley, Mass.) based on time-resolved fluorescence resonance energy transfer (TR-FRET). […]
QUANTITY MEASURED: EC50 (nM)

- COMPOUND: "Cc1ccc(C2Nc3ccc(N4CCOCC4)cc3C3C4CCC(C4)C23)cc1 (stereo not shown)"
  QUANTITY MEASURED: "EC50"
  QUALIFIER SYMBOL: ">"
  RECORDED MEASUREMENT: 10000
- COMPOUND: "CCCNC(=O)Nc1ccc2c(c1)C1C3CCC(C3)C1C(c1ccc(C)cc1)N2 (stereo not shown)"
  QUANTITY MEASURED: "EC50"
  QUALIFIER SYMBOL: ">"
  RECORDED MEASUREMENT: 10000
- COMPOUND: "Cc1ccc(C2Nc3ccc(NC(=O)CC4CCCO4)cc3C3C4CCC(C4)C23)cc1 (stereo not shown)"
  QUANTITY MEASURED: "EC50"
  QUALIFIER SYMBOL: "="
  RECORDED MEASUREMENT: 102
- COMPOUND: "CN(C)S(=O)(=O)c1ccc2c(c1)C1C3CCC(C3)C1C(c1ccnn1C)N2 (stereo not shown)"
  QUANTITY MEASURED: "EC50"
  QUALIFIER SYMBOL: "="
  RECORDED MEASUREMENT: 7.5
- COMPOUND: "CS(=O)(=O)N(c1ccc2c(c1)C1C3CCC(C3)C1C(c1ccccc1)N2)S(C)(=O)=O (stereo not shown)"
  QUANTITY MEASURED: "EC50"
  QUALIFIER SYMBOL: "="
  RECORDED MEASUREMENT: 0.63
- COMPOUND: "O=C(Nc1ccc2c(c1)C1C3CCC(C3)C1C(c1ccccc1)N2)c1cocn1 (stereo not shown)"
  QUANTITY MEASURED: "EC50"
  QUALIFIER SYMBOL: "="
  RECORDED MEASUREMENT: 680
- COMPOUND: "O=C(CC1CCCO1)Nc1ccc2c(c1)C1C3CCC(C3)C1C(c1ccccc1)N2 (stereo not shown)"
  QUANTITY MEASURED: "EC50"
  QUALIFIER SYMBOL: "="
  RECORDED MEASUREMENT: 9.1
- COMPOUND: "CN(C)S(=O)(=O)c1ccc2c(c1)C1C3CCC(C3)C1C(c1cncnc1)N2 (stereo not shown)"
  QUANTITY MEASURED: "EC50"
  QUALIFIER SYMBOL: "="
  RECORDED MEASUREMENT: 72.8
- COMPOUND: "CC(=O)Nc1ccc2c(c1)C1C3CCC(C3)C1C(c1ccccc1)N2 (stereo not shown)"
  QUANTITY MEASURED: "EC50"
  QUALIFIER SYMBOL: "="
  RECORDED MEASUREMENT: 43
- COMPOUND: "Cc1ccc(C2Nc3ccc(S(=O)(=O)N4CCCCC4)cc3C3C4CCC(C4)C23)cc1 (stereo not shown)"
  QUANTITY MEASURED: "EC50"
  QUALIFIER SYMBOL: "="
  RECORDED MEASUREMENT: 21
- COMPOUND: "COCCC(=O)Nc1ccc2c(c1)C1C3CCC(C3)C1C(c1ccccc1)N2 (stereo not shown)"
  QUANTITY MEASURED: "EC50"
  QUALIFIER SYMBOL: "="
  RECORDED MEASUREMENT: 12.4
- COMPOUND: "CC(C)S(=O)(=O)N1c2ccc(S(=O)(=O)N(C)C)cc2C2C3CCC(C3)C2C1c1ccccc1 (stereo not shown)"
  QUANTITY MEASURED: "EC50"
  QUALIFIER SYMBOL: "="
  RECORDED MEASUREMENT: 1500
- COMPOUND: "Cn1nccc1C1Nc2ccc(S(N)(=O)=O)cc2C2C3CCC(C3)C12 (stereo not shown)"
  QUANTITY MEASURED: "EC50"
  QUALIFIER SYMBOL: "="
  RECORDED MEASUREMENT: 2000
